Compiled literature IC50, tested on Endothelin receptor type B (Sus scrofa).
Target: Endothelin receptor type B (Sus scrofa)
Sequence (P35463 whole entry): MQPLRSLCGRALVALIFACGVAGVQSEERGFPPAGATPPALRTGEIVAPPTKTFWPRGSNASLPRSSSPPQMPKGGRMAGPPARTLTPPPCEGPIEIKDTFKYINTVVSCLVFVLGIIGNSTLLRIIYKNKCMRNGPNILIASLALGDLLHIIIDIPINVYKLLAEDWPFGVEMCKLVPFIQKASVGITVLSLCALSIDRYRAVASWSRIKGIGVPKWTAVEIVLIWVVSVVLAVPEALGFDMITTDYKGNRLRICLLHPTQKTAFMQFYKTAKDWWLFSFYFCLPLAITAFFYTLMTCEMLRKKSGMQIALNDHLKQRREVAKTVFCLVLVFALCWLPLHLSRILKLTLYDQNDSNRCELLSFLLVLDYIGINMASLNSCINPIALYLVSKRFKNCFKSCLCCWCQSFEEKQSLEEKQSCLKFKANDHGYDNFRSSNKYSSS
Parameter: IC50 (µM)

Solved entries (count: 2):
| Compound | IC50 / µM |
| --- | --- |
| COc1ccc(C(=O)/C(Cc2cc(OC)c(OC)c(OC)c2)=C(\C(=O)O)c2ccc3nsnc3c2)cc1 | 0.34 |
| CC(C)C[C@@H]1NC(=O)[C@@H](c2cccs2)NC(=O)[C@@H]2CCCN2C(=O)[C@@H](CC(=O)O)NC(=O)[C@@H](Cc2c[nH]c3ccccc23)NC1=O (single isomer, unassigned) | 19 |

[I] COc1cc(C/C(C(=O)c2ccc3c(c2)CCO3)=C(/C(=O)O)c2ccc3nsnc3c2)cc(OC)c1OC
[II] CCCCCCS(=O)(=O)N(CCC)CCN1C[C@H](c2ccc3c(c2)OCO3)[C@@H](C(=O)O)[C@@H]1c1ccc(OC)c(F)c1 (stereo in doubt; 15c)
Which item exceeds the other in IC50, I or II ? Lab log: write the label of the selected item as the result.
I
(I: 0.46 µM, II: 0.00034 µM)
